# targetUnderTest: PS2-complex (WT PS2-containing γ-secretase) (Homo sapiens)
# procedureSummary: in vitro cleavage assay, Aβ40 production by AlphaLISA
# testContext: PS2-complex WT, mean ± SD, n=3
quantity: IC50 (nM)

> print(dat)
                                   compound  quantity  units  experimentalvalue
1  O=S(=O)(NC1CCC(c2cc(F)ccc2F)(S(=O)(=O)c2ccc(Cl)cc2)CC1)C(F)(F)F (stereo not shown) [MRK-560]      IC50     nM                173

* * *

# targetUnderTest: PS2 PI287-288TL γ-secretase complex (Homo sapiens, UniProt P49810, I288L/P287T)
# procedureSummary: in vitro cleavage assay, Aβ40 production by AlphaLISA
# testContext: PS2 PI287-288TL, mean ± SD
# Procedure: In total we generated six variants, including single and double residue swapping of Thr281/Leu282 in PS1 with Pro287/Ile288 in PS2, respectively. […] Protein concentration was determined using the Bradford method. […] The cleaved products of these substrates were detected using a monoclonal antibody (1:1000 dilution, CW0299, CWBio) against the C-terminal Myc tag. Aβ40 production was detected using the AlphaLISA assay (PerkinElmer) as described. […] IC50 were determined by a four-parameter logistic regression. […]
quantity: IC50 (µM)

> print(dat)
                                   compound  experimentalvalue
1  O=S(=O)(NC1CCC(c2cc(F)ccc2F)(S(=O)(=O)c2ccc(Cl)cc2)CC1)C(F)(F)F (stereo not shown) [MRK-560]              0.025

* * *

# targetUnderTest: PS2 P287T γ-secretase complex (Homo sapiens, UniProt P49810, P287T)
# procedureSummary: in vitro cleavage assay, Aβ40 production by AlphaLISA
# testContext: mean ± SD
quantity: IC50 (µM)

> print(dat)
                                   compound                           targetundertest  quantity  experimentalvalue
1  O=S(=O)(NC1CCC(c2cc(F)ccc2F)(S(=O)(=O)c2ccc(Cl)cc2)CC1)C(F)(F)F (stereo not shown) [MRK-560]  PS2 P287T γ-secretase complex (Homo sapiens, UniProt P49810, P287T)      IC50              0.106

* * *

# targetUnderTest: PS1 T281P γ-secretase complex (Homo sapiens, UniProt P49768, T281P)
# procedureSummary: in vitro cleavage assay, Aβ40 production by AlphaLISA
quantity: IC50 (nM)

> print(dat)
                                   compound  quantity  experimentalvalue
1  O=S(=O)(NC1CCC(c2cc(F)ccc2F)(S(=O)(=O)c2ccc(Cl)cc2)CC1)C(F)(F)F (stereo not shown) [MRK-560]      IC50                 55

* * *

# targetUnderTest: PS1 TL281-282PI γ-secretase complex (Homo sapiens, UniProt P49768, L282I/T281P)
# procedureSummary: in vitro cleavage assay, Aβ40 production by AlphaLISA
quantity: IC50 (nM)

> print(dat)
                                   compound  quantity  experimentalvalue
1  O=S(=O)(NC1CCC(c2cc(F)ccc2F)(S(=O)(=O)c2ccc(Cl)cc2)CC1)C(F)(F)F (stereo not shown) [MRK-560]      IC50                195
